Tested on: Aspergillus niger
Protocol Summary: Antifungal activity against Aspergillus niger assessed as growth inhibition at 0.5% after 48 to 72 hr by agar disk diffusion method
Format: functional
Measured Metric: diameter of the inhibition zone (DIZ)

Some molecules with known diameter of the inhibition zone (DIZ) results, for comparison:
>>> reading("COC(=O)CCSC1=C(SCCC(=O)OC)C(=O)c2ccccc2C1=O")
"14.7 mm"
>>> reading("O=C1C(SCc2ccc(Cl)cc2)=C(N2CCSCC2)C(=O)c2ccccc21")
"0 mm"
>>> reading("O=C1C(SCc2ccc(Cl)cc2)=C(N2CCOCC2)C(=O)c2ccccc21")
"0 mm"
>>> reading("CCOC1=C(Sc2nccn2C)C(=O)c2ccccc2C1=O")
"12 mm"
>>> reading("O=C1C(SCc2ccc(Cl)cc2)=C(N2CCCCC2)C(=O)c2ccccc21")
"0 mm"

// diameter of the inhibition zone (DIZ) value for O=C1C2=C(SCCCCSC3=C(SCCCCS2)C(=O)c2ccccc2C3=O)C(=O)c2ccccc21 : 19.4 mm

* * *

System: Mycobacterium
Protocol Summary: Antibacterial activity against Mycobacterium luteum B-917 assessed as growth inhibition at 0.1% after 24 hr by agar disk diffusion method
Format: functional
Measured Metric: diameter of the inhibition zone (DIZ)
Include the unit after the number when you answer.

Some molecules with known diameter of the inhibition zone (DIZ) results, for comparison:
>>> reading("COC(=O)CCSC1=C(SCCC(=O)OC)C(=O)c2ccccc2C1=O")
"15.4 mm"
>>> reading("O=C1C(Cl)=C(N2CCC(C(O)(c3ccccc3)c3ccccc3)CC2)C(=O)c2ccccc21")
"7.5 mm"
>>> reading("O=C1C2=C(SCCCCSC3=C(SCCCCS2)C(=O)c2ccccc2C3=O)C(=O)c2ccccc21")
"21.4 mm"
>>> reading("CCOC1=C(Sc2nccn2C)C(=O)c2ccccc2C1=O")
"0 mm"
>>> reading("O=C1C(Cl)=C(Sc2c(Cl)c(Cl)c(Cl)c(Cl)c2Cl)C(=O)c2ccccc21")
"0 mm"

// diameter of the inhibition zone (DIZ) value for O=C1C(SCc2ccc(Cl)cc2)=C(N2CCC(C(O)(c3ccccc3)c3ccccc3)CC2)C(=O)c2ccccc21 : 0 mm

// diameter of the inhibition zone (DIZ) value for CN[C@H](CC(C)C)C(=O)N[C@H]1C(=O)N[C@@H](CC(N)=O)C(=O)N[C@H]2C(=O)N[C@H]3C(=O)N[C@H](C(=O)N[C@H](C(=O)O)c4cc(O)cc(O)c4-c4cc3ccc4O)[C@H](O)c3ccc(c(Cl)c3)Oc3cc2cc(c3O[C@@H]2O[C@H](CO)[C@@H](O)[C@H](O)[C@H]2O[C@H]2C[C@](C)(N)[C@H](O)[C@H](C)O2)Oc2ccc(cc2Cl)[C@H]1O : 18 mm

// diameter of the inhibition zone (DIZ) value for O=C1C(Sc2ccc(O)cc2)=C(Sc2ccc(O)cc2)C(=O)c2ccccc21 : 7 mm

// diameter of the inhibition zone (DIZ) value for O=C1C(SCCOc2ccccc2)=C(SCCOc2ccccc2)C(=O)c2ccccc21 : 0 mm

* * *

Test system: Mycobacterium
Protocol Summary: Antibacterial activity against Mycobacterium luteum B-917 assessed as growth inhibition at 0.1% after 24 hr by agar disk diffusion method
Type: functional
Measured Metric: diameter of the inhibition zone (DIZ) (mm)
Output spec: scalar in mm, unitless text.

>>> reading("O=C1C(SCc2ccc(Cl)cc2)=C(N2CCSCC2)C(=O)c2ccccc21")
7
>>> reading("O=C1C(SCc2ccc(Cl)cc2)=C(N2CCN(c3ccccc3F)CC2)C(=O)c2ccccc21")
0
>>> reading("O=C1C(SCc2ccc(Cl)cc2)=C(N2CCCC2)C(=O)c2ccccc21")
8.7
>>> reading("CCOC1=C(Sc2ccc(O)cc2)C(=O)c2ccccc2C1=O")
0
>>> reading("O=C1C(SCc2ccc(Cl)cc2)=C(N2CCCCC2)C(=O)c2ccccc21")
0

// diameter of the inhibition zone (DIZ) value for O=C1C(SCc2ccc(Cl)cc2)=C(N2CCOCC2)C(=O)c2ccccc21 : 7

// diameter of the inhibition zone (DIZ) value for COC(=O)CCSC1=C(Cl)C(=O)c2ccccc2C1=O : 9

Just for reference, ChEMBL document CHEMBL3045787 is where these values come from.
